Biological target: KRAS(G12C) (Homo sapiens, UniProt P01116, G12C)
Sequence (P01116 1-188 isoform P01116-2 G12C): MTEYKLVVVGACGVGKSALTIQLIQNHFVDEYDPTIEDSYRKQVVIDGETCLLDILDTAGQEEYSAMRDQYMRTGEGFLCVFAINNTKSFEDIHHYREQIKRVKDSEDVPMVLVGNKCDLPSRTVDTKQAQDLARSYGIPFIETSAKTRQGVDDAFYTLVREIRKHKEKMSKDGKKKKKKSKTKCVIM
Assay: KRAS(G12C) Western blot protein degradation assay in MIA PaCa-2 cells
Type: cell-based
Design: host or cells: LU65A
Settings: 625 nM, 48 hr
For each of the compounds below, state its inhibition at 0.625 µM.

Previously resolved entries follow.
Identify measured inhibition at 0.625 µM corresponding to C=C(F)C(=O)N1CCN(c2nc(OC[C@@H]3CCN(C(=O)C4CCN(Cc5ccc(-n6c(C(=O)NCC(F)(F)F)nnc6-c6cc(C(C)C)c(O)cc6O)cc5)CC4)C3)nc3c2CCN(c2cccc4cccc(Cl)c24)C3)C[C@@H]1CC#N [Compound 168] < 33%

Identify measured inhibition at 0.625 µM corresponding to C=CC(=O)N1CCN(c2nc(OC[C@@H]3CCCN3C(=O)C3CCN(Cc4ccc(-n5c(O)nnc5-c5cc(C(C)C)c(O)cc5O)cc4)CC3)nc3c2CCN(c2cccc4cccc(Cl)c24)C3)C[C@@H]1CC#N [Compound 139] < 33%

Attention now turns to another entry.
Identify measured inhibition at 0.625 µM corresponding to C=CC(=O)N1CCN(c2nc(OC[C@@H]3CCN(C(=O)c4cc(CC)c(O)cc4O)C3)nc3c2CCN(c2cccc4cccc(Cl)c24)C3)C[C@@H]1CC#N [Compound 158] < 33%
